Provide the recorded IC50 for the entries that follow.
target: HLA-DR2 molecules (Homo sapiens, UniProt P01903+P01911); construct: Soluble HLA-DR2 molecules were expressed in Drosophila S2 cells and purified as described; made in house; host or cells: Drosophila S2 cells; assay: Competitive binding assay: inhibition of biotinylated Cop 1 binding to HLA-DR2 molecules; conditions: biotinylated Cop 1 1.5 μM, recombinant HLA-DR2, one out of two independent experiments; read-out: IC50 (μM) vs. biotinylated: Cop 1
No end group written: not given here.

Sample records with IC50:
AAEKYAAYKAAAAAA [#77]    > 1000 µM
EAKKYEAYKAAAAAA [#102]    2 µM
EAKAYAAYKAAAAAA [#86]    > 1000 µM

Could I get IC50 for every one of these entries?
1. EKEAAAAYAAAAAAA [#46]
2. AAEAYKAYKAAAAAA [#94]
3. AEAEYKAYAAAAAAA [#66]

1: > 1000 µM; 2: > 150 µM; 3: > 1000 µM

Could I get IC50 for every one of these entries?
1. EAAKYEAYKAAAAAA [#100]
2. AAKAYEAYAAAAAAA [#65]
3. AKAEYAAYKAAAAAA [#81]
4. AEKAAAAYAAAAAAA [#49]
5. AKAAAAEYAAAAAAA [#51]

1. 2 µM
2. > 1000 µM
3. > 1000 µM
4. > 1000 µM
5. > 1000 µM

* * *

Provide the recorded IC50 for the entries that follow.
target: HLA-DR2 molecules (Homo sapiens, UniProt P01903+P01911); construct: Soluble HLA-DR2 molecules were expressed in Drosophila S2 cells and purified as described; made in house; host or cells: Drosophila S2 cells; test: Competitive binding assay: inhibition of biotinylated MBP 85-99 binding to HLA-DR2 molecules; conditions: read-out: IC50 (μM) vs. biotinylated: MBP 95-99
No end group written: not given here.

AAEKYAEYKAAAAAA [#104]    > 150 µM
AAKAYEAYAAAAAAA [#65]    > 1000 µM
EKEAYAAYAAAAAAA [#73]    > 1000 µM
EAEKYAAYAAAAAAA [#71]    > 1000 µM
AAAEYAAYKAAAAAA [#76]    > 1000 µM

Could I get IC50 for every one of these entries?
1. AKAEYAAYKAAAAAA [#81]
2. AEAEYKAYAAAAAAA [#66]

> 1000 µM
> 1000 µM

Could I get IC50 for every one of these entries?
1. EKAAYAAYKAAAAAA [#87]
2. AEKKYAAYAAAAAAA [#54]
3. AEKAAAAYAAAAAAA [#49]
4. AKAAYEAYAAAAAAA [#64]

["> 1000 µM", "> 1000 µM", "> 1000 µM", "> 1000 µM"]

Could I get IC50 for every one of these entries?
1. EKAEYAAYAAAAAAA [#72]
2. EKAKYEAYKAAAAAA [#101]
3. AAEKYAAYAAAAAAA [#55]
4. AAKEYAAYAAAAAAA [#58]
5. AAKKYEAYAAAAAAA [#68]
6. AKKEYAEYKAAAAAA [#103]
7. AEKAYAAYAAAAAAA [#52]
8. EAKAYAAYAAAAAAA [#75]

1. > 1000 µM
2. 3 µM
3. > 1000 µM
4. > 1000 µM
5. > 1000 µM
6. > 150 µM
7. 150 µM
8. > 1000 µM
